Data credit: PubChem BioAssay (EPA / NIEHS)

# Read-out: urokinase plasminogen activator (uPA), PLAU (gene 5328)
# assay-remarks: BSK_KF3CT_uPA: BioMAP Diversity Plus: KF3CT Assay for urokinase plasminogen activator (uPA) Biomarker Activity (AID 2283075)
# conditions-used: primary human keratinocytes with fibroblasts; actives raise or lower the signal
# Method: BSK_KF3CT is a cell-based, multiplexed-readout assay that uses keratinocytes and foreskin fibroblasts, a human skin primary cell co-culture, with measurements taken at 24 hours after chemical dosing in a 96-well plate.BSK_KF3CTA is an assay component measured in the BSK_KF3CT assay. It measures uPA antibody related to regulation of gene expression using ELISA technology.Data from the assay component BSK_KF3CTA was analyzed into 1 assay endpoint. […]
Active and inactive are the calls of the source. Rule for the calls: active = hit-call score of the fitted dose curve at least 0.9, where 1 is the maximum; inactive = score below 0.9.
Outcomes: 1 (active), -1 (inactive)

[[record]]
compound = "C#C[C@]1(O)CC[C@H]2[C@@H]3CCC4=CC(=O)CC[C@@H]4[C@H]3CC[C@@]21CC"
group = -1

[[record]]
compound = "N[C@@H](Cc1cc(I)c(Oc2ccc(O)c(I)c2)c(I)c1)C(=O)O"
group = -1

[[record]]
compound = "CC(C)(c1ccc(O)cc1)c1ccc(O)cc1"
group = -1

[[record]]
compound = "CCN(Cc1c(F)cccc1Cl)c1c([N+](=O)[O-])cc(C(F)(F)F)cc1[N+](=O)[O-]"
group = -1

[[record]]
compound = "COc1nc(C)nc(NC(=O)NS(=O)(=O)c2ccccc2OCCCl)n1"
group = -1

[[record]]
compound = "CCOC(=O)C(C)Oc1ccc(Oc2cnc3cc(Cl)ccc3n2)cc1 (stereo not drawn)"
group = -1

[[record]]
compound = "CCCN(CCC)c1c([N+](=O)[O-])cc(C(F)(F)F)c(N)c1[N+](=O)[O-]"
group = 1

[[record]]
compound = "C=CCOC(Cn1ccnc1)c1ccc(Cl)cc1Cl (stereo not drawn)"
group = -1

[[record]]
compound = "c1ccc(Nc2ccccc2)cc1"
group = -1

[[record]]
compound = "CCCCOCCOCCOCc1cc2c(cc1CCC)OCO2"
group = -1

[[record]]
compound = "CCOC(=O)[C@H](C)Oc1ccc(Oc2nc3ccc(Cl)cc3o2)cc1"
group = -1

[[record]]
compound = "O=C(c1ccc(O)cc1O)c1ccc(O)cc1O"
group = -1

[[record]]
compound = "CN(C)C(=O)Nc1ccc(Cl)c(Cl)c1"
group = -1

[[record]]
compound = "O=C(Nc1ccc([N+](=O)[O-])cc1Cl)c1cc(Cl)ccc1O"
group = 1

[[record]]
compound = "O=C(O)C1(C(=O)Nc2ccc(Cl)cc2Cl)CC1"
group = -1

[[record]]
compound = "CC(=O)[C@H]1CC[C@H]2[C@@H]3CCC4=CC(=O)CC[C@]4(C)[C@H]3CC[C@]12C"
group = -1

[[record]]
compound = "CC1(C)C(C=C(Cl)Cl)C1C(=O)OCc1cccc(Oc2ccccc2)c1 (stereo not drawn)"
group = -1

[[record]]
compound = "O=C(c1ccccc1)C1CCCCC1"
group = -1

[[record]]
compound = "CCC(C)OC(=O)N1CCCCC1CCO (stereo not drawn)"
group = -1

[[record]]
compound = "C[C@]12C[C@H](O)[C@H]3[C@@H](CCC4=CC(=O)CC[C@@]43C)[C@@H]1CC[C@@H]2C(=O)CO"
group = -1

[[record]]
compound = "CCCOC(=O)NCCCN(C)C"
group = -1

[[record]]
compound = "CCCCCOC(=O)COc1cc(N2C(=O)C3=C(CCCC3)C2=O)c(F)cc1Cl"
group = -1

[[record]]
compound = "COC(=O)c1ccccc1S(=O)(=O)NC(=O)Nc1nc(OC(F)F)cc(OC(F)F)n1"
group = -1


---

# assay-remarks: BSK_SAg_PBMCCytotoxicity: PBMC Cytotoxicity Assessment in the BioMAP Diversity Plus: SAg Assay (AID 2283093);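 note: PBMC viability measured as Alamar Blue reduction fluorescence at 546/580 nm; fitted both ways against DMSO so a hit may be loss or gain of signal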
# conditions-used: primary human HUVEC with PBMC
Active and inactive are the calls of the source. The calls were made as follows: active = hit-call score of the fitted dose curve at least 0.9, where 1 is the maximum; inactive = score below 0.9.
Outcome codes: active, inactive

[[record]]
compound = "CCOC(=O)C(C)Oc1ccc(Oc2cnc3cc(Cl)ccc3n2)cc1 (stereo not drawn)"
group = "inactive"

[[record]]
compound = "CCCCC(CC)CN1C(=O)C2C3C=CC(C3)C2C1=O (stereo not drawn)"
group = "active"

[[record]]
compound = "CCOC(=O)C(C)Oc1ccc(Oc2nc3ccc(Cl)cc3o2)cc1 (stereo not drawn)"
group = "inactive"

[[record]]
compound = "CCCOC(=O)c1ccc(C(=O)OCCC)nc1"
group = "inactive"

[[record]]
compound = "c1ccc2[nH]c(-c3cscn3)nc2c1"
group = "inactive"

[[record]]
compound = "CC1(C)C(C=C(Cl)Cl)C1C(=O)OCc1cccc(Oc2ccccc2)c1 (stereo not drawn)"
group = "inactive"

[[record]]
compound = "C#C[C@]1(O)CC[C@H]2[C@@H]3CCC4=CC(=O)CC[C@@H]4[C@H]3CC[C@@]21CC"
group = "inactive"

[[record]]
compound = "c1ccc(Nc2ccccc2)cc1"
group = "inactive"

[[record]]
compound = "CSC(=O)c1cccc2nnsc12"
group = "inactive"

[[record]]
compound = "C#CCOC(=O)[C@@H](C)Oc1ccc(Oc2ncc(Cl)cc2F)cc1"
group = "inactive"

[[record]]
compound = "N[C@@H](Cc1cc(I)c(Oc2ccc(O)c(I)c2)c(I)c1)C(=O)O"
group = "inactive"

[[record]]
compound = "CC(C)CCCCCCc1ccc(O)cc1"
group = "active"

[[record]]
compound = "CCCCCCC(C)OC(=O)COc1nc(F)c(Cl)c(N)c1Cl (stereo not drawn)"
group = "active"

[[record]]
compound = "CC(C)(c1ccc(O)cc1)c1ccc(O)cc1"
group = "inactive"

[[record]]
compound = "CCC(C)OC(=O)N1CCCCC1CCO (stereo not drawn)"
group = "inactive"

[[record]]
compound = "CCOC(=O)COc1cc(-n2ncc(C(F)(F)F)c(C)c2=O)c(F)cc1Cl"
group = "inactive"

[[record]]
compound = "CCOC(=O)c1ccc(O)cc1"
group = "inactive"

[[record]]
compound = "CCC(O)=C1C(=O)CC(C(=O)O)CC1=O (stereo not drawn)"
group = "inactive"

[[record]]
compound = "CC(C)(C)[C@@H](O)[C@@H](Cc1ccc(Cl)cc1)n1cncn1"
group = "active"

[[record]]
compound = "COc1c(Cl)ccc(Cl)c1C(=O)O"
group = "inactive"

[[record]]
compound = "CCCCOC(=O)C(C)Oc1ccc(Oc2ccc(C(F)(F)F)cn2)cc1 (stereo not drawn)"
group = "inactive"

[[record]]
compound = "COC(=O)c1ccccc1S(=O)(=O)NC(=O)Nc1nc(OC(F)F)cc(OC(F)F)n1"
group = "inactive"

[[record]]
compound = "CCCN(CCC)C(=O)SCC"
group = "inactive"


---

# assay-remarks: BSK_hDFCGF_Proliferation: Cell Proliferation Assessment in the BioMAP Diversity Plus: hDFCGF Assay (AID 2283059);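 note: curves fitted for both rise and fall of signal versus DMSO baseline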
# conditions-used: primary human foreskin fibroblasts
The source made the active and inactive calls. How the source made its calls: active means hit-call score of the fitted dose curve at least 0.9, where 1 is the maximum; inactive means score below 0.9.
Classes used: YES for active, NO for inactive

[[record]]
molecule = "CC(=O)S[C@@H]1CC2=CC(=O)CC[C@]2(C)[C@H]2CC[C@@]3(C)[C@@H](CC[C@@]34CCC(=O)O4)[C@H]12"
group = "YES"

[[record]]
molecule = "CCCCOC(=O)C(C)Oc1ccc(Oc2ccc(C(F)(F)F)cn2)cc1 (configuration not stated)"
group = "NO"

[[record]]
molecule = "CN(C)C(=O)Nc1ccc(Cl)c(Cl)c1"
group = "NO"

[[record]]
molecule = "c1ccc2[nH]c(-c3cscn3)nc2c1"
group = "NO"

[[record]]
molecule = "CCNc1nc(N)nc(Cl)n1"
group = "NO"

[[record]]
molecule = "CCOC(=O)C(C)Oc1ccc(Oc2cnc3cc(Cl)ccc3n2)cc1 (configuration not stated)"
group = "YES"

[[record]]
molecule = "O=C(c1ccc(O)cc1O)c1ccc(O)cc1O"
group = "NO"

[[record]]
molecule = "CC(C)CCCCCCc1ccc(O)cc1"
group = "YES"

[[record]]
molecule = "COC(=O)c1ccc(CNS(C)(=O)=O)cc1S(=O)(=O)NC(=O)Nc1nc(OC)cc(OC)n1"
group = "NO"

[[record]]
molecule = "CCCCCCC(C)OC(=O)COc1nc(F)c(Cl)c(N)c1Cl (configuration not stated)"
group = "YES"

[[record]]
molecule = "C=CCOC(Cn1ccnc1)c1ccc(Cl)cc1Cl (configuration not stated)"
group = "NO"

[[record]]
molecule = "CCOC(=O)c1ccc(O)cc1"
group = "NO"


---

# Read-out: Cellular tumor antigen p53 (Homo sapiens)
# assay-remarks: LTEA_HepaRG_TP53: Life Technologies and Expression Analysis (LTEA) Assay for Tumor Protein P53 (TP53) using HepaRG (AID 2283537)
# conditions-used: mRNA level, 48 h; actives raise or lower the signal
The source made the active and inactive calls. How the source made its calls: active means hit-call score of the fitted dose curve at least 0.9, where 1 is the maximum; inactive means score below 0.9.
Outcomes: active, inactive

[[record]]
chemical_string = "O=C(Nc1ccc([N+](=O)[O-])cc1Cl)c1cc(Cl)ccc1O"
group = "inactive"

[[record]]
chemical_string = "CCCN(CCC)C(=O)SCC"
group = "inactive"

[[record]]
chemical_string = "CCNc1nc(N)nc(Cl)n1"
group = "inactive"

[[record]]
chemical_string = "CCN(Cc1c(F)cccc1Cl)c1c([N+](=O)[O-])cc(C(F)(F)F)cc1[N+](=O)[O-]"
group = "active"

[[record]]
chemical_string = "CCOC(=O)COc1cc(-n2ncc(C(F)(F)F)c(C)c2=O)c(F)cc1Cl"
group = "inactive"

[[record]]
chemical_string = "CC(C)(c1ccc(O)cc1)c1ccc(O)cc1"
group = "inactive"

